# Tested on: 786-0 renal
# Measurement description: NCI-60 one-dose screen, 48 h (100 = growth as untreated, 0 = no growth, -100 = all killed)
# Conditions used: 10 µM unless noted
Compounds without any hit were thinned out: in the full panel of roughly 83,000, 20% have a hit.
Measured attribute: growth (%)

INSERT INTO assay_data (compound, number) VALUES
  ('Cc1cc(=O)c2c(C)ccc(C)c2[nH]1', 96.4),
  ('COc1cccc2c(=O)c3c(sc12)c(NCCN(C)C)nc1ccccc13', 28.7),
  ('Cc1oc2c(c1C(=O)N1CC[C@@H](N)C1)C(=O)c1c(c(O)c3ccccc3c1O)C2=O', 41),
  ('Cc1ccc(S(=O)(=O)N2CCc3ccc(O)c4c3C2CCc2ccccc2-4)cc1 (centres undefined)', 100),
  ('COc1cc(-c2nc3ccccc3o2)cc(CN2CCN(c3ccccc3)CC2)c1O', 90.2),
  ('COc1ccccc1CNCCCCCCCCCCCCN1C(=O)c2ccc3c4c(ccc(c24)C1=O)C(=O)N(CCCCCCCCCCCCNCc1ccccc1OC)C3=O', -73.7),
  ('FC(F)(F)c1cc(CNc2nc(Cl)ncc2Br)cc(C(F)(F)F)c1', 84.6),
  ('Cc1nn(-c2ccccc2)c2nc3nc4c(c(N)c3c(-c3ccc(Cl)cc3)c12)CCCC4', 86.9),
  ('O=C1/C(=C/c2ccc(Cl)cc2)N=C(c2ccccc2)N1CCc1cccs1', 50.9),
  ('Cc1nc2cc(Nc3nc(Cl)nc(Nc4ccc(F)cc4)n3)ccc2n1Cc1ccccc1', 33),
  ('O=C1NC(=O)C2(CCCC2C(=O)O)N1 (centres undefined)', 94.9),
  ('COc1cccc(OC)c1OC(=O)c1ccccc1', 106),
  ('Oc1cccc(Nc2nc(-c3ccccn3)cs2)c1', 102),
  ('CC(=O)Nc1ccc(S(=O)(=O)N/N=C\c2ccc(Cl)c(Cl)c2)cc1', 113),
  ('COC(=O)c1c2c(c(C)[n+]([O-])c1C)C(=O)C=C(NCc1cccc(Cl)c1)C2=O', 6.87),
  ('COC(=O)/C=C1/CCC2C3CCC4=CC(=O)C(Br)CC4(C)C3C(=O)CC12C (centres undefined)', 83.8),
  ('CCC(C)[C@H]1O[C@]2(CC[C@@H]1C)C[C@@H]1C[C@@H](C/C=C(\C)[C@@H](OC3C[C@H](OC)C(O[C@H]4C[C@H](OC)[C@@H](O)[C@H](C)O4)[C@H](C)O3)[C@@H](C)/C=C/C=C3\CO[C@@H]4[C@H](O)C(C)=C[C@@H](C(=O)O1)[C@]34O)O2 (some centres undefined)', -79.7),
  ('Fc1ccccc1Nc1ccc2nnc(-c3ccncc3)n2n1', 101),
  ('Cc1cccc2c(=O)c3c(sc12)c(NCCNCCO)nc1ccccc13', 52.9);

---

# System: A549/ATCC NSCLC
# Measurement description: NCI-60 one-dose screen, 48 h (100 = growth as untreated, 0 = no growth, -100 = all killed)
# Conditions used: 10 µM unless noted
# Procedure: Growth inhibition of the A549/ATCC human Non-Small Cell Lung tumor cell line is measured as a screen for anti-cancer activity. Cells are grown in 96 well plates and exposed to the test compound for 48 hours. Compounds are tested at a single concentration, which is 10^-5 M for most compounds. The reported endpoint is percent growth (GI% or GIPRCNT), where numbers from 0 - 100% represent growth inhibition, and numbers from -100% - 0 represent cell death. […]
This is part of a sample that, as a whole, favours compounds with a hit. Of some 83,000 tested, about 20% had one in any assay.
Label class 1 when growth >= 70%; otherwise class 0.

INSERT INTO measurements (compound, target_system, answer_label) VALUES
  ('CCOC(=O)c1cnn(CC(O)c2ccc(F)cc2)c1NC(=O)Nc1ccccc1F (stereo not given)', 'A549/ATCC NSCLC', 'class 1'),
  ('Cc1nc2cc(Nc3nc(Cl)nc(Nc4ccc(F)cc4)n3)ccc2n1Cc1ccccc1', 'A549/ATCC NSCLC', 'class 1'),
  ('COc1cccc(C2C3=C(COC3=O)N(CCO)c3cc4c(cc32)OCO4)c1 (stereo not given)', 'A549/ATCC NSCLC', 'class 0'),
  ('COc1ccc(Cn2c(Br)c3c(c2-c2cc(OC)c(OC)c(OC)c2)CCc2sc(N)nc2-3)cc1', 'A549/ATCC NSCLC', 'class 0'),
  ('O=C1NC(=O)C2(CCCC2C(=O)O)N1 (stereo not given)', 'A549/ATCC NSCLC', 'class 1'),
  ('CS(=O)(=O)Nc1cccc(C(=O)NCc2ccc(N3CCOCC3)cc2)c1', 'A549/ATCC NSCLC', 'class 1'),
  ('Cc1cc(=O)c2c(C)ccc(C)c2[nH]1', 'A549/ATCC NSCLC', 'class 1'),
  ('O=C(N/N=C/c1ccc(F)cc1)c1[nH]c2ccc(I)cc2c1-c1ccccc1', 'A549/ATCC NSCLC', 'class 0'),
  ('COc1nc2c(cc1S(=O)(=O)c1ccccc1)CCc1c-2cnn1-c1cccc(Cl)c1', 'A549/ATCC NSCLC', 'class 0');

---

# Test system: K-562 leukemia
# Measurement description: NCI-60 one-dose screen, 48 h (100 = growth as untreated, 0 = no growth, -100 = all killed)
# Conditions used: 10 µM unless noted
This is part of a sample that, as a whole, favours compounds with a hit. Of some 83,000 tested, about 20% had one in any assay. Active and inactive are the calls of the source. Rule for the calls: active = growth percent below 10; inactive = the rest.
Entries annotated with measured growth
Measured attribute: growth

INSERT INTO measurements (smiles_text, target_system, measured_attribute, result) VALUES
  ('COc1ccccc1/C=C/C(=O)/C=C/c1ccccc1O', 'K-562 leukemia', 'growth', '-6.29% (active)'),
  ('CCCCC(CCCC)(S(=O)(=O)CC)S(=O)(=O)CC', 'K-562 leukemia', 'growth', '101% (inactive)'),
  ('COc1cc2oc(-c3ccc(O)cc3)cc(=O)c2c(O)c1I', 'K-562 leukemia', 'growth', '92.6% (inactive)'),
  ('CN(C)C(=S)SCN1C(=O)c2ccc([N+](=O)[O-])cc2S1(=O)=O', 'K-562 leukemia', 'growth', '77.8% (inactive)'),
  ('CCSc1nnc2c3cc(Br)ccc3n(C)c2n1', 'K-562 leukemia', 'growth', '118% (inactive)'),
  ('N#Cc1ccc(C(F)(F)F)nc1N1CCC(C(=O)Nc2ccc(Cl)cc2)CC1', 'K-562 leukemia', 'growth', '49.3% (inactive)'),
  ('Cc1ccccc1-c1cc(-c2ccc(Br)s2)[nH]c(=O)c1C#N', 'K-562 leukemia', 'growth', '90.3% (inactive)'),
  ('O=C(CCc1nnc2sc(-c3ccccc3)nn12)c1nc2ccccc2[nH]1', 'K-562 leukemia', 'growth', '5.84% (active)'),
  ('COc1ccc(C(=O)C2=CC(=O)C(=O)C2)cc1OC', 'K-562 leukemia', 'growth', '116% (inactive)'),
  ('CC(=O)OC[C@]1(C)C=C2C(=O)[C@](C)(O)C3(CC3)C(C)=C2[C@H]1OC(C)=O', 'K-562 leukemia', 'growth', '93.1% (inactive)'),
  ('Cc1ccc2nc(NC(=O)CSC(=S)N3CCN(Cc4ccccc4)CC3)sc2c1', 'K-562 leukemia', 'growth', '11.8% (inactive)'),
  ('Cc1ccc(-c2c3c(N)c4c(nc3nc3c2c(C)nn3-c2ccccc2)CCCC4)cc1', 'K-562 leukemia', 'growth', '36.6% (inactive)'),
  ('O=c1ccc2ccccc2o1', 'K-562 leukemia', 'growth', '112% (inactive)'),
  ('O=c1oc2ccccc2cc1-c1csc(N/N=C/c2cc3ccccc3nc2Cl)n1', 'K-562 leukemia', 'growth', '108% (inactive)'),
  ('COc1ccc(-c2nc3sc(C)cn3c2/C=C/C(=O)c2cc(OC)c(OC)c(OC)c2)cc1', 'K-562 leukemia', 'growth', '75.6% (inactive)'),
  ('Cn1c2ccccc2c2nn(Cc3ccccc3)c(=O)nc21', 'K-562 leukemia', 'growth', '109% (inactive)'),
  ('CCOC(=O)n1cc(C2=C(c3cn(C)c4ccccc34)COC2=O)c2ccccc21', 'K-562 leukemia', 'growth', '5.86% (active)'),
  ('Cc1nn2c(-c3nc4ccc(Cl)cc4[nH]3)c(-c3ccc(F)cc3)nc2s1', 'K-562 leukemia', 'growth', '88.6% (inactive)'),
  ('Oc1ccccc1/C=N/Nc1nc2ccccc2s1', 'K-562 leukemia', 'growth', '41% (inactive)'),
  ('CCOC(=O)c1c(-c2cc(OC)c(OC)c(OC)c2)csc1N', 'K-562 leukemia', 'growth', '45.5% (inactive)'),
  ('COc1cc(CNCCCN2C(=O)c3ccc4c5c(ccc(c35)C2=O)C(=O)N(CCCNCc2cc(OC)c(OC)c(OC)c2)C4=O)cc(OC)c1OC', 'K-562 leukemia', 'growth', '7.69% (active)'),
  ('COc1ccc(NC(=O)COc2ccccc2)c(C(N)=O)c1', 'K-562 leukemia', 'growth', '9.36% (active)');

From: PubChem BioAssay (NCI)
